experimental_target: Endothelial lipase (EL) (Homo sapiens (Human))
method_description: EL assay: endothelial lipase activity with fluorescent substrate A10070 in DMPG vesicles
Assay type: biochemical
attribute_measured: IC50 (nM)
Write it as a number; the unit nM goes unstated.

See these solved cases before continuing.
- NS(=O)(=O)CCNC(=O)C(c1nc2ccc(-c3cccc(C(=O)N4CCOCC4)c3)cc2s1)S(=O)(=O)CCC(F)(F)F (stereo not shown): 9.8
- COc1ccc(-c2cc3sc(C(C(=O)NCc4nnc(C)o4)S(=O)(=O)Cc4ccccc4)nc3cc2C)cn1 (stereo not shown): 24
- CS(=O)(=O)C(C(=O)NCCS(N)(=O)=O)c1nc2cc(-c3cccc(F)n3)ccc2s1 (stereo not shown): 2
- CC(C)S(=O)(=O)C(C(=O)NCCS(N)(=O)=O)c1nc2cc(C(F)(F)F)c(-c3ccc(C(=O)N4CCOCC4)cc3)cc2s1 (stereo not shown): 9.2

Request: Which measured IC50 value corresponds to NS(=O)(=O)CCNC(=O)C(c1nc2ccc(-c3ccc(C(=O)N4CCOCC4)cc3)cc2s1)S(=O)(=O)Cc1ccc(Cl)c(Cl)c1 (stereo not shown) ?
Response: 5.3

---

experimental_target: hepatic lipase (HL) (Homo sapiens (Human))
Sequence (P11150 23-499, species assumed): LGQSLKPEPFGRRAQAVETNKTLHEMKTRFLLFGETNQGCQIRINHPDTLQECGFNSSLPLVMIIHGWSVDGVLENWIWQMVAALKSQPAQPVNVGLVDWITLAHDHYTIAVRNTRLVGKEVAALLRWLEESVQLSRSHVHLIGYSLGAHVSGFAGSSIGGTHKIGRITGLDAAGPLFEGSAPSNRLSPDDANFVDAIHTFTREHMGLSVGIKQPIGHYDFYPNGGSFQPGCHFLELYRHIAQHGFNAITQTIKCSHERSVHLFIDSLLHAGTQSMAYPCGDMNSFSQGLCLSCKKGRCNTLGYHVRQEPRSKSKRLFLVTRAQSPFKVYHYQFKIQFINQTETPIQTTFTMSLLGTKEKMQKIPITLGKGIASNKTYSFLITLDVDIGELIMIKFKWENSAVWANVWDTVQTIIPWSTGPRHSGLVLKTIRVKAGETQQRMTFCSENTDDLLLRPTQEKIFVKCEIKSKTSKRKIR
method_description: HL assay: hepatic lipase activity with fluorescent substrate A10070 in DMPG vesicles
Type: biochemical
# pIC50 per record follows
// pIC50 is dimensionless: -log10 of concentration (M)

• CS(=O)(=O)C(C(=O)NCCS(N)(=O)=O)c1nc2ccc(-c3cnn(CCC(F)(F)F)c3)cc2s1 (stereo not shown) = 6.51
• NS(=O)(=O)CCNC(=O)C(c1nc2ccc(-c3cnn(CCN4CCOCC4)c3)cc2s1)S(=O)(=O)CC1CC1 (stereo not shown) = 5.65
• NS(=O)(=O)CCNC(=O)C(c1nc2ccc(-c3cccc(Cl)c3)cc2s1)S(=O)(=O)Cc1ccc(F)cc1 (stereo not shown) = 8.62

Now take the following compound into account.
Request: Which measured pIC50 value corresponds to Cc1nnc(CNC(=O)C(c2nc3cc(C)c(-c4ccc(C(=O)N5CCOCC5)cc4)cc3s2)S(C)(=O)=O)o1 (stereo not shown) ?
Response: 6.71

---

experimental_target: Endothelial lipase (EL) (Homo sapiens (Human), UniProt Q9Y5X9)
Sequence (Q9Y5X9 21-500): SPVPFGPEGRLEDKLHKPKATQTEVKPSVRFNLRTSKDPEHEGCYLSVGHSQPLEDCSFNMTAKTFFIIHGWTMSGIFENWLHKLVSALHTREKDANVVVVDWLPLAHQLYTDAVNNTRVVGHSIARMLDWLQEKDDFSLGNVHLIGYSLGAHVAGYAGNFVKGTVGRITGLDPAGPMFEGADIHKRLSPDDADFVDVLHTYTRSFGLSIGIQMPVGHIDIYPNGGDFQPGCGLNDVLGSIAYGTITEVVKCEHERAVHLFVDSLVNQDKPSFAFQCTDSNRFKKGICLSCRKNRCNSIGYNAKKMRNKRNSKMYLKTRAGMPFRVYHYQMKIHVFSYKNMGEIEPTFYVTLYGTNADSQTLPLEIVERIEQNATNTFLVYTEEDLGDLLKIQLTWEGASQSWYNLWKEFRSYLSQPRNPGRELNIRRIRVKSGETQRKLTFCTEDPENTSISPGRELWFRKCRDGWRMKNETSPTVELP
method_description: EL assay: endothelial lipase activity with fluorescent substrate A10070 in DMPG vesicles
Format: biochemical
experimental_parameters: EL from conditioned media of HT-1080 cells; 30 min incubation with compound at 37° C.; A10070/DMPG vesicles
pIC50: −log10 of the molar value.
attribute_measured: pIC50

See these solved cases before continuing.
* COCCN(C)C(=O)c1ccc(-c2ccc3nc(C(C(=O)NCCS(N)(=O)=O)S(C)(=O)=O)sc3c2)cc1 (stereo not shown) | > 8.00
* CS(=O)(=O)C(C(=O)NCCS(N)(=O)=O)c1nc2ccc(-c3ccc(-n4cccn4)cc3)cc2s1 (stereo not shown) | > 8.00
* CN(C)S(=O)(=O)c1ccc(-c2ccc3nc(C(C(=O)NCCS(N)(=O)=O)S(C)(=O)=O)sc3c2)cc1 (stereo not shown) | > 8.00

Now take the following compound into account.
Request: Which measured pIC50 value corresponds to Cc1nnc(CNC(=O)C(c2nc3cc(C)c(-c4ccccc4)cc3s2)S(=O)(=O)Cc2ccccc2)o1 (stereo not shown) ?
Response: 7.92

// provenance: patent US8987314B2
